biological target: recombinant human GAA (acid alpha-glucosidase) (Homo sapiens, UniProt P10253); test: Acid alpha-glucosidase (GAA) assay (4-methylumbelliferyl-alpha-D-pyranoside substrate, fluorescence)
Would you mind telling me the reported IC50 of each entry?
Numbers only, in nM.

Consider the worked cases shown below.
> print(dat)
                                   compound                        measurement.target  experimental.value
1  OC[C@@H]1[C@@H](O)[C@H](O)[C@@H](O)CN1CCCCCCCCC1CNCCO1 (stereo partly shown)  recombinant human GAA (acid alpha-glucosidase) (Homo sapiens, UniProt P10253)                 747
2  Cc1cc(NCc2cccc(CN3C[C@H](O)[C@@H](O)[C@H](O)[C@H]3CO)c2)cc(-c2cccnn2)c1  recombinant human GAA (acid alpha-glucosidase) (Homo sapiens, UniProt P10253)                2710
3  OC[C@@H]1[C@@H](O)[C@H](O)[C@@H](O)CN1CCc1ccc(CCNc2cc(Cl)cc(-c3ncon3)c2)cc1  recombinant human GAA (acid alpha-glucosidase) (Homo sapiens, UniProt P10253)                 380
4  O=[N+]([O-])c1cc(N2CC3CC2CO3)ccc1NCc1ccc(CN2C[C@@H](O)[C@H](O)[C@@H](O)[C@@H]2CO)cc1 (stereo in doubt)  recombinant human GAA (acid alpha-glucosidase) (Homo sapiens, UniProt P10253)                 129
5  O=[N+]([O-])c1cc(CN2CCCO2)ccc1NCc1cccc(CN2C[C@H](O)[C@@H](O)[C@H](O)[C@H]2CO)c1  recombinant human GAA (acid alpha-glucosidase) (Homo sapiens, UniProt P10253)                 976

Value sought for every listed compound: IC50.
1. Cc1cc(NCc2cccc(CN3C[C@H](O)[C@@H](O)[C@H](O)[C@H]3CO)n2)cc(N2CCOCC2)c1
2. CN(C)C(=O)c1cc(NCCCCCCN2C[C@H](O)[C@@H](O)[C@H](O)[C@H]2CO)cc(-c2ncccn2)c1
3. [N-]=[N+]=Nc1ccc(NCCc2ccc(CCN3C[C@H](O)[C@@H](O)[C@H](O)[C@H]3CO)c3c2OCCO3)c([N+](=O)[O-])c1
4. NC(=O)c1cc(-c2ncccn2)ccc1NCCCCCCN1C[C@H](O)[C@@H](O)[C@H](O)[C@H]1CO
5. NS(=O)(=O)c1cc(-c2ncccn2)ccc1NCCCCCCN1C[C@H](O)[C@@H](O)[C@H](O)[C@H]1CO
6. O=[N+]([O-])c1cc(CN2CCCO2)ccc1NCc1ccc(CN2C[C@H](O)[C@@H](O)[C@H](O)[C@H]2CO)cc1
7. COc1cc(NCCc2ccc(CCN3C[C@H](O)[C@@H](O)[C@H](O)[C@H]3CO)cc2)cc(C2=COCCO2)c1

OUTPUT:
1: 10400; 2: 86; 3: 1800; 4: 103; 5: 35; 6: 175; 7: 455

Value sought for every listed compound: IC50.
1. CS(=O)(=O)c1cc(NCc2cccc(CN3C[C@H](O)[C@@H](O)[C@H](O)[C@H]3CO)c2)cc(-c2ncccn2)c1
2. OC[C@@H]1[C@@H](O)[C@H](O)[C@@H](O)CN1CCc1ccc(CCNc2cc(Cl)cc(-c3ncccn3)c2)cc1
3. N#Cc1cc(NCc2ccc(CN3C[C@H](O)[C@@H](O)[C@H](O)[C@H]3CO)cc2)cc(C2=COCCO2)c1
4. [N-]=[N+]=Nc1ccc(NCCN(CCC(N)=O)CCN2C[C@H](O)[C@@H](O)[C@H](O)[C@H]2CO)c([N+](=O)[O-])c1
5. OC[C@@H]1[C@@H](O)[C@H](O)[C@@H](O)CN1Cc1cnc(CNc2cc(-c3ncccn3)cc(C3CC3)c2)cn1

OUTPUT:
1: 1880; 2: 62; 3: 68; 4: 37800; 5: 50

Value sought for every listed compound: IC50.
1. COc1cc(NCCCCCCN2C[C@H](O)[C@@H](O)[C@H](O)[C@H]2CO)cc(C2=CCCCC2)c1
2. OC[C@@H]1[C@@H](O)[C@H](O)[C@@H](O)CN1Cc1ccc(CNc2cc(-c3cccnn3)cc(C3CC3)c2)cc1

OUTPUT:
[66, 350]

###

Would you mind telling me the reported IC50 of each entry?
biological target: rat sucrase (partially purified alpha-glucosidase from intestinal rat powder) (Rattus norvegicus, UniProt P23739)
Sequence (P23739 whole entry): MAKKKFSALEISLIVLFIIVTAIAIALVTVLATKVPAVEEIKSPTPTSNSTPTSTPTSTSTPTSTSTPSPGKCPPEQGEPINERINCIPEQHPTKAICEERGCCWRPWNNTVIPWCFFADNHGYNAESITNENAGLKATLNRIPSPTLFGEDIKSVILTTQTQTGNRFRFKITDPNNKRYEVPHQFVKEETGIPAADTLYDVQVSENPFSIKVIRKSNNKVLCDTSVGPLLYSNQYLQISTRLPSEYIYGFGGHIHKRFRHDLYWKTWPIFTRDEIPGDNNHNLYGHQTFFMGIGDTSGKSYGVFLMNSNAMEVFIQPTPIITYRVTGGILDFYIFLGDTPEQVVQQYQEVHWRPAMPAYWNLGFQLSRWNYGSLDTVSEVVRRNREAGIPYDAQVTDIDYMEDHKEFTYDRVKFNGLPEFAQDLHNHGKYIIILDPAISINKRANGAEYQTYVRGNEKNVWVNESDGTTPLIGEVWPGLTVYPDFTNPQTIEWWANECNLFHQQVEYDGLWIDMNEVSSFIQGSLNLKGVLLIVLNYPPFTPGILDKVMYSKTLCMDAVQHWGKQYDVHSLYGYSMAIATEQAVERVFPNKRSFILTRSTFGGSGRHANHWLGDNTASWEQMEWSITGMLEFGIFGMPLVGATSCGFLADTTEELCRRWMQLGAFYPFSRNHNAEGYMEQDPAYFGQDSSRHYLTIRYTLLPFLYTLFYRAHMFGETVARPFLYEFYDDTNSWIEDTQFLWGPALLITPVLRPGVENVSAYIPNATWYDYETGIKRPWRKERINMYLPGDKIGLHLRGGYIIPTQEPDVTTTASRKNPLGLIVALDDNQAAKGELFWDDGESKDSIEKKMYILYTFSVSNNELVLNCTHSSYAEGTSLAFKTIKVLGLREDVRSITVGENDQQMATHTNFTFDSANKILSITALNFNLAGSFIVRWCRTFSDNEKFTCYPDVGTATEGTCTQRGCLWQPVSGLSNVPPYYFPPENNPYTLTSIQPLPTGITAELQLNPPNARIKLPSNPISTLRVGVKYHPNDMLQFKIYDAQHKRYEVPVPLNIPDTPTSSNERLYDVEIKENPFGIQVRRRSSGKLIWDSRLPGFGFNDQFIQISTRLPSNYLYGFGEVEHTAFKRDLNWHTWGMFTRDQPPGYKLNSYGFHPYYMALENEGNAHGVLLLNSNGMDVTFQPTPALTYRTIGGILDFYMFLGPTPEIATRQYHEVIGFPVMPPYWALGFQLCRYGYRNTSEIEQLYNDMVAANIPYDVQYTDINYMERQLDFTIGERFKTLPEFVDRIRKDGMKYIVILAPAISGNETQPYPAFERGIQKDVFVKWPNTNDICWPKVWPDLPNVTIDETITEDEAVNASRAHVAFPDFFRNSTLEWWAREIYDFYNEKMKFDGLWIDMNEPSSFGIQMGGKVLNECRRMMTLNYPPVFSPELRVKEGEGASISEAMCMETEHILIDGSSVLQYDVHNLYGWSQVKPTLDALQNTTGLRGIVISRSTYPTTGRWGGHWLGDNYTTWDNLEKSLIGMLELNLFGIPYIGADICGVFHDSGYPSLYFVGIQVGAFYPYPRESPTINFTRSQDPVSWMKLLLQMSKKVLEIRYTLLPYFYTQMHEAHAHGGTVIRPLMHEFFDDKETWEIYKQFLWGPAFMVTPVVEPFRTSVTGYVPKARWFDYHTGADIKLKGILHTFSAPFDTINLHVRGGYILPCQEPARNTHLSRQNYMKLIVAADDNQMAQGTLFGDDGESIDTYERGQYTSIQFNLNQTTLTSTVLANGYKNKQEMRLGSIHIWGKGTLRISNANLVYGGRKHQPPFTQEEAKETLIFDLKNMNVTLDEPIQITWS
Answers are plain numbers, in nM.

> print(dat)
                         structure.notation  experimental.value
1  COc1ccc(CCCCCCCN2C[C@H](O)[C@@H](O)[C@H](O)[C@H]2CO)cc1                 155
2  O=[N+]([O-])c1cc(CN2CCCO2)ccc1NCc1cccc(CN2C[C@H](O)[C@@H](O)[C@H](O)[C@H]2CO)c1                  76

INPUT: What value of measured IC50 is listed for COCCc1ccc(CCCCCN2C[C@H](O)[C@@H](O)[C@H](O)[C@H]2CO)cc1 ?
OUTPUT: 387

###

Would you mind telling me the reported IC50 of each entry?
biological target: recombinant alpha-glucosidase II (murine full-length glucosidase II, alpha and beta subunits, Glu 2) (Mus musculus); construct: made in house; host or cells: HEK-293T cells transduced with BacMam viruses (75% alpha, 25% beta); protein harvested from culture supernatant; experiment: Alpha-glucosidase II assay (4-methylumbelliferyl-alpha-D-pyranoside substrate, fluorescence); format: biochemical; settings: Glucosidase 2; read-out: Glu2 IC50
Sequence (O08795 15-521): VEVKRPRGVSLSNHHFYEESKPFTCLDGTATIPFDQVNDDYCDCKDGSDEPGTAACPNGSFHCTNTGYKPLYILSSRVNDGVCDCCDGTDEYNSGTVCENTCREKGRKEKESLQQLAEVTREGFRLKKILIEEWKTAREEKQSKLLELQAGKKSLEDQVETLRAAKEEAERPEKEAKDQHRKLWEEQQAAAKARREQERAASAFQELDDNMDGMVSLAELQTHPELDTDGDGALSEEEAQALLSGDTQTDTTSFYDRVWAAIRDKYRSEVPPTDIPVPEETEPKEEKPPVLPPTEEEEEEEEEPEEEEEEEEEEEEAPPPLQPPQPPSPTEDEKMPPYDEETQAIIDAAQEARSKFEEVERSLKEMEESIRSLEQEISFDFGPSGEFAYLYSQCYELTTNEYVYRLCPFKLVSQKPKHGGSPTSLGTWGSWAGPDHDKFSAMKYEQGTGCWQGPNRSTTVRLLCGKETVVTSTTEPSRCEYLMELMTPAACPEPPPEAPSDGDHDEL
Sequence (Q8BHN3 33-944): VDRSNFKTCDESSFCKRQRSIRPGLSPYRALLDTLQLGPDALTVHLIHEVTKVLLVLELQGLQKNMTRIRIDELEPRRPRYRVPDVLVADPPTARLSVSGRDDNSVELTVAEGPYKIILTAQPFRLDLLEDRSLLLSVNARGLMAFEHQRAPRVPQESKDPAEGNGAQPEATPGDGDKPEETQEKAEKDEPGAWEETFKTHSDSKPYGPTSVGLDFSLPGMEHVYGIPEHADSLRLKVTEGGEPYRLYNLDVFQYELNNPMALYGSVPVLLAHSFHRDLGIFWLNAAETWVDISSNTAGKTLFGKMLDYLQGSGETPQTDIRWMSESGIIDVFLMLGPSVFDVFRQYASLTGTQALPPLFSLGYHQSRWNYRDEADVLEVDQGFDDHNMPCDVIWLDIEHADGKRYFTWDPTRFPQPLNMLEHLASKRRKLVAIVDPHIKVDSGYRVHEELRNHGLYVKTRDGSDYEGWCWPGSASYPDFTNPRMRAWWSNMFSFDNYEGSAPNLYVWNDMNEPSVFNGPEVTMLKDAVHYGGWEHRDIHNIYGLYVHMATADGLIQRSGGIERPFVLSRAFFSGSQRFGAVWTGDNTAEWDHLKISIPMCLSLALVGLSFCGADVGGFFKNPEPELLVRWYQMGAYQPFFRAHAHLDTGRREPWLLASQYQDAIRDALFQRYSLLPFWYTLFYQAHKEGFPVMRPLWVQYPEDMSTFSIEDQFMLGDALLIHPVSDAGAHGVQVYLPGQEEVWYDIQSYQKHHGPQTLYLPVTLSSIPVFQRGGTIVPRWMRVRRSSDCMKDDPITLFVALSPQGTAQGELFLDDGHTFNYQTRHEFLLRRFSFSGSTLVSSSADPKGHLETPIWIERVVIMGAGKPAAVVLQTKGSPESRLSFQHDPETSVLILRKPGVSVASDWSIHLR
Answers are plain numbers, in nM.

> print(dat)
                                   compound  experimental.value
1  CN(C)Cc1ccc(NCCCCCCN2C[C@H](O)[C@@H](O)[C@H](O)[C@H]2CO)c(C(=O)O)c1 [Compound 1245]                  51
2  COCCc1ccc(CCCCCN2C[C@H](O)[C@@H](O)[C@H](O)[C@H]2CO)cc1 [Compound 1307]                  77
3  Cc1cc(NCc2ccc(CN3C[C@H](O)[C@@H](O)[C@H](O)[C@H]3CO)cc2)cc(-c2ccco2)c1 [Compound 1317]                1200
4  COCCc1ccc(CCCN2C[C@H](O)[C@@H](O)[C@H](O)[C@H]2CO)cc1 [Compound 1308]                 125
5  CS(=O)(=O)Nc1ccc(NCCCCCCN2C[C@H](O)[C@@H](O)[C@H](O)[C@H]2CO)c([N+](=O)[O-])c1 [Compound 1300]                  14

Value sought for every listed compound: IC50.
1. CN(Cc1ccc(CN2C[C@H](O)[C@@H](O)[C@H](O)[C@H]2CO)cc1)c1cc(-c2cccnn2)cc(C2CC2)c1 [Compound 1001]
2. OC[C@@H]1[C@@H](O)[C@H](O)[C@@H](O)CN1Cc1ccc(CNc2ccc(Br)cc2)cc1 [Compound 1028]
3. O=[N+]([O-])c1cc(-c2ncc[nH]2)ccc1NCCc1ccc(CCN2C[C@H](O)[C@@H](O)[C@H](O)[C@H]2CO)cc1 [Compound 1078]

OUTPUT:
1. 437
2. 827
3. 95

###

Molecular target: recombinant human GBA (beta-glucocerebrosidase) (Homo sapiens, UniProt P04062)
Sequence (P04062 40-536): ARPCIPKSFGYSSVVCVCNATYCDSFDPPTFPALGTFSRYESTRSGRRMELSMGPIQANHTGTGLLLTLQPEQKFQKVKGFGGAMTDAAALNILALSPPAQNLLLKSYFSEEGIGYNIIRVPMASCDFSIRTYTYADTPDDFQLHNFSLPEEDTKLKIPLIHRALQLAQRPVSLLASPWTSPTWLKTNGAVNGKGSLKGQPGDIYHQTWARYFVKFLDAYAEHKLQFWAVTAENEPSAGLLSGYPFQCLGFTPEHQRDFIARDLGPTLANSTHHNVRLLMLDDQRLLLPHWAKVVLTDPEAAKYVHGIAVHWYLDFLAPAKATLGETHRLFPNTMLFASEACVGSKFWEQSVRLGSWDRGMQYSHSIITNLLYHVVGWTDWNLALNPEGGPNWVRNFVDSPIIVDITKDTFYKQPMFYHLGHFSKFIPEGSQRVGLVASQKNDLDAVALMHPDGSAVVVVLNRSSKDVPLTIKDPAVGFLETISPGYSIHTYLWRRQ
Experiment: Beta-glucocerebrosidase (GBA, glucosylceramidase) assay (4-methylumbelliferyl-beta-D-pyranoside substrate, fluorescence)
experimental-readout: pIC50
Answers are plain numbers, as −log10 of the molar value.

Consider the worked cases shown below.
> print(dat)
                                   compound  experimental.value
1  N#Cc1ccc(F)cc1NCCCCCCN1C[C@H](O)[C@@H](O)[C@H](O)[C@H]1CO [Compound 1251]                5.85
2  [N-]=[N+]=Nc1ccc(NCCc2cc(CCN3C[C@H](O)[C@@H](O)[C@H](O)[C@H]3CO)cs2)c([N+](=O)[O-])c1 [Compound 1179]                6.42
3  O=[N+]([O-])c1cc(-c2ncccn2)ccc1NCc1ccc(CN2C[C@H](O)[C@@H](O)[C@H](O)[C@H]2CO)cc1 [Compound 1102]                4.54

Field: next compound
INPUT: What value of measured pIC50 is listed for NC(=O)c1cc(-c2ncccn2)ccc1NCCCCCCN1C[C@H](O)[C@@H](O)[C@H](O)[C@H]1CO [Compound 1266] ?
OUTPUT: 5.20
